Tested on: NCI-H460
Assay: Cytotoxicity against human NCI-H460 cells after 48 hrs by alamar blue assay
Format: functional, cell-based
Conditions: NCI-H460, 48 h
Value kind: IC50 (µM)
Quick reminder: number only, in µM, skip the unit.

input: Request the reported IC50 associated with COc1cc(O)c2c(=O)cc(-c3ccc(O)cc3)oc2c1[C@H]1CC(=O)[C@H](O)[C@@H](C)O1 [ACICULATINONE]
output: 18.1

input: Moving on to C[C@H]1O[C@@H](c2c(O)cc(O)c3c(=O)cc(-c4ccc(O)cc4)oc23)C[C@H](O)[C@H]1O
output: 12

input: Moving on to COc1cc(O)c2c(=O)cc(-c3ccc(O)cc3)oc2c1[C@H]1C[C@H](O)[C@H](O)[C@@H](C)O1 [ACICULATIN]
output: 46.9

input: Moving on to C[C@H]1O[C@@H](c2c(O)cc(O)c3c(=O)cc(-c4ccc(O)cc4)oc23)C[C@H](O)[C@@H]1O
output: 18.2

* * *

Answer each item with its documented IC50.
Test system: CCRF-CEM
Assay: Cytotoxicity against human CEM cells after 48 hrs by alamar blue assay
Assay type: functional, cell-based
Quick reminder: number only, in µM, skip the unit.

input: Request the reported IC50 associated with COc1cc(O)c2c(=O)cc(-c3ccc(O)cc3)oc2c1[C@H]1C[C@H](O)[C@H](O)[C@@H](C)O1
output: 2.65

input: Moving on to C[C@H]1O[C@@H](c2c(O)cc(O)c3c(=O)cc(-c4ccc(O)cc4)oc23)C[C@H](O)[C@H]1O
output: 2.58

input: Moving on to COc1cc(O)c2c(=O)cc(-c3ccc(O)cc3)oc2c1[C@H]1CC(=O)[C@H](O)[C@@H](C)O1
output: 13.3

input: Moving on to C[C@H]1O[C@@H](c2c(O)cc(O)c3c(=O)cc(-c4ccc(O)cc4)oc23)C[C@H](O)[C@@H]1O
output: 4.42
